# Measurement target: T1, human CD47 (analyte in the Biacore assay) (human, UniProt Q08722 19-139, limits assumed)
# T1 construct: also called human CD47 protein
# Method description: SPR (Biacore T200), antibody captured by anti-mouse Fc, human CD47 as analyte
Reported property: kon (M⁻¹ s⁻¹)
Use M⁻¹ s⁻¹ as the unit, but write only the number.

Give its kon value. Item: 059-1.100.5 (antibody, mouse IgM, V domains shown, Mouse hybridoma antibody; light chain type kappa; also called 059-1.100.5 purified antibody) VH: QVQLQQSGAELVRPGASVTLSCKASGYTFTDYEMHWVKQTPVHGLEWIGAIDPETGGTAYNQNFKGKATLTADKSSSTAYMELRSLTSEDSAVYYCTRGTPYAMDYWGQGTSVTVSS VL: DVVMTQTPLSLPVSLGDQASISCRSSQSLVHSNGNTYLHWYLQKPGQSPKLLIYKVSNRFSGVPDRFSGSGSGTDFTLKISRVEAEDLGVYFCSQSTHVPWTFGGGTKLEIK
157000

Give its kon value. Item: 059-1.51.2 (antibody, mouse IgM, V domains shown, Mouse hybridoma antibody; light chain type kappa) VH: EVQLQQSGPELVKPGASVKMSCKASGYTFTNYVMHWMKQKPGQGLEWIGYINPYNDDTKYNEKFKDRATLTSDKSSSTAYMELSSLTSEDSAVYYCAKGGYYSMDYWGQGTSVTVSS VL: DVVMTQTPLSLPVSLGDQASISCRSSQSLVHSKGNTYLHWYLQKPGQSPKLLIYKVSNRFSGVPDRFSGSGSGTDFTLKISRVEAEDLGVYFCSQSTHVPFTFGSGTKLEIK
370000
